Please respond with reported total protein half-life in vivo for every item in the list.
assay: total protein half-life in vivo (active degradation + dilution); higher = more stable protein; settings: wild type E. coli NCM3722; growth: C-lim chemostat; doubling time 6 h
The response must be a number in h with no trailing unit.

**Q:** Identify measured total protein half-life in vivo corresponding to MQFDWSAIWPAIPLLIEGAKMTLWISVLGLAGGLVIGLLAGFARTFGGWIANHVALVFIEVIRGTPIVVQVMFIYFALPMAFNDLRIDPFTAAVVTIMINSGAYIAEITRGAVLSIHKGFREAGLALGLSRWETIRYVILPLALRRMLPPLGNQWIISIKDTSLFIVIGVAELTRQGQEIIAGNFRALEIWSAVAVFYLIITLVLSFILRRLERRMKIL [P0AEQ6]
**A:** 6.15

**Q:** Identify measured total protein half-life in vivo corresponding to MQNTTHDNVILELTVRNHPGVMTHVCGLFARRAFNVEGILCLPIQDSDKSHIWLLVNDDQRLEQMISQIDKLEDVVKVQRNQSDPTMFNKIAVFFQ [P0ADF8]
**A:** 3.63

**Q:** Identify measured total protein half-life in vivo corresponding to "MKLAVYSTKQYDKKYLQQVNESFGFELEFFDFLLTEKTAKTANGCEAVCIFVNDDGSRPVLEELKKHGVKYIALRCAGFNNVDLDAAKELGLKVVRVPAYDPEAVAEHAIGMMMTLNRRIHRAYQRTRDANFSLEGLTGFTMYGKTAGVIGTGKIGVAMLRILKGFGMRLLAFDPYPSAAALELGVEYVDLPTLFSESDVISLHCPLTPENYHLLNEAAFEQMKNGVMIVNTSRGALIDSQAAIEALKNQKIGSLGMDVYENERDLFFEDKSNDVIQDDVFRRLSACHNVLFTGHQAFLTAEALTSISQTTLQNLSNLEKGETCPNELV"
**A:** 5.97

**Q:** Identify measured total protein half-life in vivo corresponding to "MLAKRIIPCLDVRDGQVVKGVQFRNHEIIGDIVPLAKRYAEEGADELVFYDITASSDGRVVDKSWVSRVAEVIDIPFCVAGGIKSLEDAAKILSFGADKISINSPALADPTLITRLADRFGVQCIVVGIDTWYDAETGKYHVNQYTGDESRTRVTQWETLDWVQEVQKRGAGEIVLNMMNQDGVRNGYDLEQLKKVREVCHVPLIASGGAGTMEHFLEAFRDADVDGALAASVFHKQIINIGELKAYLATQGVEIRIC"
**A:** 5.53

**Q:** Identify measured total protein half-life in vivo corresponding to "MSIRFARKADCAAIAEIYNHAVLYTAAIWNDQTVDADNRIAWFEARTLAGYPVLVSEENGVVTGYASFGDWRSFDGFRHTVEHSVYVHPDHQGKGLGRKLLSRLIDEARDCGKHVMVAGIESQNQASLHLHQSLGFVVTAQMPQVGTKFGRWLDLTFMQLQLDERTEPDAIG"
**A:** 5.77

**Q:** Identify measured total protein half-life in vivo corresponding to "MSKSDVFHLGLTKNDLQGATLAIVPGDPDRVEKIAALMDKPVKLASHREFTTWRAELDGKPVIVCSTGIGGPSTSIAVEELAQLGIRTFLRIGTTGAIQPHINVGDVLVTTASVRLDGASLHFAPLEFPAVADFECTTALVEAAKSIGATTHVGVTASSDTFYPGQERYDTYSGRVVRHFKGSMEEWQAMGVMNYEMESATLLTMCASQGLRAGMVAGVIVNRTQQEIPNAETMKQTESHAVKIVVEAARRLL"
**A:** 6.25

**Q:** Identify measured total protein half-life in vivo corresponding to "MSRPLLQLALDHSSLEAAQRDVTLLKDSVDIVEAGTILCLNEGLGAVKALREQCPDKIIVADWKVADAGETLAQQAFGAGANWMTIICAAPLATVEKGHAMAQRCGGEIQIELFGNWTLDDARDWHRIGVRQAIYHRGRDAQASGQQWGEADLARMKALSDIGLELSITGGITPADLPLFKDIRVKAFIAGRALAGAANPAQVAGDFHAQIDAIWGGARA"
**A:** 5.17

**Q:** Identify measured total protein half-life in vivo corresponding to "MKIITCYKCVPDEQDIAVNNADGSLDFSKADAKISQYDLNAIEAACQLKQQAAEAQVTALSVGGKALTNAKGRKDVLSRGPDELIVVIDDQFEQALPQQTASALAAAAQKAGFDLILCGDGSSDLYAQQVGLLVGEILNIPAVNGVSKIISLTADTLTVERELEDETETLSIPLPAVVAVSTDINSPQIPSMKAILGAAKKPVQVWSAADIGFNAEAAWSEQQVAAPKQRERQRIVIEGDGEEQIAAFAENLRKVI"
**A:** 5.04

**Q:** Identify measured total protein half-life in vivo corresponding to MMVIRPVERSDVSALMQLASKTGGGLTSLPANEATLSARIERAIKTWQGELPKSEQGYVFVLEDSETGTVAGICAIEVAVGLNDPWYNYRVGTLVHASKELNVYNALPTLFLSNDHTGSSELCTLFLDPDWRKEGNGYLLSKSRFMFMAAFRDKFNDKVVAEMRGVIDEHGYSPFWQSLGKRFFSMDFSRADFLCGTGQKAFIAELMPKHPIYTHFLSQEAQDVIGQVHPQTAPARAVLEKEGFRYRNYIDIFDGGPTLECDIDRVRAIRKSRLVEVAEGQPAQGDFPACLVANENYHHFRVVLVRTDPATERLILTAAQLDALKCHAGDRVRLVRLCAEEKTA [P0AE37]
**A:** 4.56

**Q:** Identify measured total protein half-life in vivo corresponding to "MLARGKTNLKIEEIRMHKHHEIHRVKPLMPALCRIRQGKKVINWETHTLTVDNNQIILFPCGYEFYIENYPEAGLYLAEMLYLPIDLIESFQKLYTVTDQIRNKTSFFLPQNPELIYCWEQLKTSVSRGFSTKIQEHLAMGVLLSLGVNHVNHLLLSYSKQSLISRCYNLLLSEPGTKWTANKVARYLYISVSTLHRRLASEGVSFQSILDDVRLNNALSAIQTTVKPISEIARENGYKCPSRFTERFHNRFNITPREIRKASRE"
**A:** 3.83

**Q:** Identify measured total protein half-life in vivo corresponding to "MQILLANPRGFCAGVDRAISIVENALAIYGAPIYVRHEVVHNRYVVDSLRERGAIFIEQISEVPDGAILIFSAHGVSQAVRNEAKSRDLTVFDATCPLVTKVHMEVARASRRGEESILIGHAGHPEVEGTMGQYSNPEGGMYLVESPDDVWKLTVKNEEKLSFMTQTTLSVDDTSDVIDALRKRFPKIVGPRKDDICYATTNRQEAVRALAEQAEVVLVVGSKNSSNSNRLAELAQRMGKRAFLIDDAKDIQEEWVKEVKCVGVTAGASAPDILVQNVVARLQQLGGGEAIPLEGREENIVFEVPKELRVDIREVD"
**A:** 3.72

**Q:** Identify measured total protein half-life in vivo corresponding to "MNIYTFDFDEIESQEDFYRDFSQTFGLAKDKVRDLDSLWDVLMNDVLPLPLEIEFVHLGEKTRRRFGALILLFDEAEEELEGHLRFNVRH"
**A:** 5.2
